B1: TPR t1 (parent)
chain: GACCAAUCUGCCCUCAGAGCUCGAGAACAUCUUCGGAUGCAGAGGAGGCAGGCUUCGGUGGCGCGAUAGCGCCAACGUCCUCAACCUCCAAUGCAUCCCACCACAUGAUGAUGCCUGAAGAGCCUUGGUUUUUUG

- Variants of: B1
- Measurement notes: polymerase ribozyme fitness, log enrichment relative to wild type (log ratio); higher = more active; in vitro selection for triplet polymerase activity
Classify by measured polymerase ribozyme fitness (log ratio): Satisfied if it is equal to or exceeds -2, Not satisfied if it is smaller.

// below: answered variants
# Alteration, Cat
records = [
    ("U9C G10C G17A G63A U81C U92A C94U U109G A119G", "Not satisfied"),
    ("C20G G44A G120C", "Not satisfied"),
    ("A18C C104A", "Not satisfied"),
    ("C13U A37G C101U", "Satisfied"),
    ("C11G A50C U92G C114A G122C U131C", "Not satisfied"),
    ("G10A U54A A119G", "Satisfied"),
]

Tell me whether polymerase ribozyme fitness (log ratio) is at least -2 here: G39U A90G C98U C102A
Not satisfied

Tell me whether polymerase ribozyme fitness (log ratio) is at least -2 here: G52A U78C
Satisfied

Tell me whether polymerase ribozyme fitness (log ratio) is at least -2 here: U7A G47C C62U
Satisfied

Tell me whether polymerase ribozyme fitness (log ratio) is at least -2 here: G69U U112A
Satisfied

Tell me whether polymerase ribozyme fitness (log ratio) is at least -2 here: G42C C62U U131C
Satisfied
